Data origin: patent US12495798B2

# Test system: cotton
# ASSAY_REMARKS: Phytotoxicity test for field crops (soil treatment test)
# Assay type: in vivo
# ASSAY_CONDITIONS: 100 g ai/ha; Cotton (20 days after treatment)
READOUT_TYPE: Soil treatment phytotoxicity, Cotton
// return just the number, without any unit appended

Below: 5 compounds and their reported Soil treatment phytotoxicity, Cotton.
Cc1nc(COCc2nc(C(F)(F)F)ccc2C(=O)Nc2nnnn2C)nn1C [Compound No. 2-116] : 2
CON(Cc1nnn(C)n1)c1nc(C(F)(F)F)ccc1C(=O)Nc1nnnn1C [Compound No. 2-30] : 9
CCOC(=O)OC(C)n1nnn(C)c1=NC(=O)c1ccc(C(F)(F)F)nc1CSCc1nnn(C)n1 (centres unmarked) [Compound No. 4-10] : 2
Cn1nnnc1COc1nc(C(F)(F)F)ccc1C(=O)Nc1nnnn1C [Compound No. 1-1] : 7
Cc1nc(COCc2nc(C(F)(F)F)ccc2C(=S)Nc2nnnn2C)nn1C [Compound No. 2-117] : 9

What does the data say about its Soil treatment phytotoxicity, Cotton? Entry: Cn1ncnc1COCc1nc(C(F)(F)F)ccc1C(=O)Nc1nnnn1C [Compound No. 1-102]
2

Now this one: Cn1nnnc1COCc1nc(C(F)(F)F)ccc1C(=O)Nc1nnnn1C [Compound No. 1-61]
2

Now consider Cn1cnc(COCc2nc(C(F)F)ccc2C(=O)Nc2nnnn2C)n1 [Compound No. 2-85] .
0

Lookup Cn1nnc(COCc2nc(C(F)(F)F)ccc2C(=O)N(C(=O)c2ccccc2)c2nnnn2C)n1 [Compound No. 2-68]
9

Moving on to Cn1nnc(COCc2nc(C(F)(F)F)ccc2C(=O)Nc2nnnn2C)n1 [Compound No. 2-59]
9

Same read-out for CON(Cc1nnn(C)n1)Cc1nc(C(F)(F)F)ccc1C(=O)Nc1nnnn1C [Compound No. 2-97] ?
8

###

# Test system: rice
# ASSAY_REMARKS: Phytotoxicity test for upland field crops (foliar treatment test)
# Type: in vivo
# ASSAY_CONDITIONS: 100 g ai/ha, Rice (7 days after treatment)
READOUT_TYPE: Foliar treatment phytotoxicity, Rice
Response field accepts a number only; no unit should be typed.

Field: example entries. Status: answers known.
COC(=O)OC(C)N(C(=O)c1ccc(C(F)(F)F)nc1COCc1ncn(C)n1)c1nnnn1C (centres unmarked) : 3
Cn1nnc(COCc2nc(C(F)(F)F)ccc2C(=S)Nc2nnnn2C)n1 : 6
Cn1ncnc1COc1nc(C(F)(F)F)ccc1C(=O)Nc1nnnn1C : 6

# get_value(readout='Foliar treatment phytotoxicity, Rice', item= Cn1nnnc1NC(=O)c1ccc(C(F)(F)F)nc1Sc1nnnn1C )
0

Same question for COC(=O)OC(C)N(C(=O)c1ccc(C(F)(F)F)nc1COCc1nnn(C)n1)c1nnnn1C (centres unmarked) please.
4

Next entry: Cn1nnc(COCc2nc(C(F)(F)C(F)(F)F)ccc2C(=O)Nc2nnnn2C)n1
6

How about this compound: Cn1cnc(COCc2nc(C(F)F)ccc2C(=O)Nc2nnnn2C)n1
8

Here is the next compound: Cn1nnnc1CSc1nc(C(F)(F)F)ccc1C(=S)Nc1nnnn1C
6

Quick one: CON(Cc1nnn(C)n1)Cc1nc(C(F)(F)F)ccc1C(=O)Nc1nnnn1C
6

Next compound up: Cn1ncnc1COCc1nc(C(F)(F)F)ccc1C(=O)Nc1nnnn1C
7

###

# Tested on: indian jointvetch
# ASSAY_REMARKS: Herbicidal activity test against upland field weeds (foliar treatment test)
# Assay type: in vivo
# ASSAY_CONDITIONS: 50 g ai/ha, scale 0-100
# Source text: […]
READOUT_TYPE: pest or weed control at 50 g/ha (%)
Entry rule: numbers only, all in %.

Cn1nnc(CSCc2nc(C(F)F)ccc2C(=O)N(C(=O)c2ccccc2)c2nnnn2C)n1 : 95
C#CCN(Cc1nnn(C)n1)c1nc(C(F)(F)F)ccc1C(=O)Nc1nnnn1C : 40
CON(Cc1nc(C(F)(F)F)ccc1C(=O)Nc1nnnn1C)Cc1ncnn1C : 90
COc1nc(COCc2nc(C(F)(F)F)ccc2C(=O)Nc2nnnn2C)nn1C : 60
CON(Cc1nnn(C)n1)Cc1nc(C(F)(F)Cl)ccc1C(=O)Nc1nnnn1C : 70

Item under review: Cn1nnnc1NC(=O)c1ccc(C(F)(F)F)nc1COCc1nnn(C(F)F)n1 . Reported pest or weed control at 50 g/ha?
70

Can you handle Cn1nc(COCc2nc(C(F)(F)F)ccc2C(=O)Nc2nnnn2C)nc1CF next?
50

For Cn1nnc(COc2nc(C(F)(F)F)ccc2C(=O)Nc2nnnn2C)n1 then?
60

###

# Test system: wheat
# ASSAY_REMARKS: Phytotoxicity test for upland field crops (foliar treatment test)
# Assay type: in vivo
# Set-up: key: 0 (no harm); 9 (complete withered)
# ASSAY_CONDITIONS: 50 g ai/ha, Wheat (14 days after treatment)
Item-by-item account of Foliar treatment phytotoxicity, Wheat
Reply briefly: the number, and no unit.

Answered examples (2):
CN(Cc1nnn(C)n1)c1nc(C(F)(F)F)ccc1C(=O)Nc1nnnn1C : 0
CCCn1nnnc1NC(=O)c1ccc(C(F)(F)F)nc1COCc1nnn(CC)n1 : 0

Quick one: Foliar treatment phytotoxicity, Wheat of Cn1nnc(CSCc2nc(C(F)(F)F)ccc2C(=S)Nc2nnnn2C)n1 ?
3

What about Cn1nc(COCc2nc(C(F)(F)F)ccc2C(=O)Nc2nnnn2C)nc1I ?
0

Again, but for Cn1nnnc1NC(=O)c1ccc(C(F)(F)F)nc1COCc1nc(C(F)F)n(C)n1
0

###

# Test system: cotton
# ASSAY_REMARKS: Phytotoxicity test for field crops (soil treatment test)
# Type: in vivo
# ASSAY_CONDITIONS: 50 g ai/ha; Cotton (20 days after treatment)
READOUT_TYPE: Soil treatment phytotoxicity, Cotton
Please reply with the value in numeric form only.

Cn1nc(COCc2nc(C(F)(F)F)ccc2C(=O)Nc2nnnn2C)nc1Cl : 3

Soil treatment phytotoxicity, Cotton lookup needed for Cn1nnc(COCc2nc(C(F)(F)F)ccc2C(=S)Nc2nnnn2C)n1 , thanks.
6.5

Another compound to check: Cn1nnc(COCc2nc(C(F)(F)F)ccc2C(=O)Nc2nnnn2C)n1
6

Do the same for Cn1nnc(CSCc2nc(C(F)F)ccc2C(=O)Nc2nnnn2C)n1 please
1

Also need CON(Cc1nnn(C)n1)c1nc(C(F)(F)F)ccc1C(=O)Nc1nnnn1C , thanks.
9

###

Examples of molecules with documented Foliar treatment phytotoxicity, Wheat follow.
# System: wheat
# ASSAY_REMARKS: Phytotoxicity test for upland field crops (foliar treatment test)
# Assay type: in vivo
# Design: key: 0 (no harm); 9 (complete withered)
# ASSAY_CONDITIONS: 100 g ai/ha, Wheat (14 days after treatment)
No unit in the answer, only the number.

Use these answered entries as a reference point.
Cn1nnnc1CSc1nc(C(F)(F)F)ccc1C(=S)Nc1nnnn1C : 0
CCn1nnc(COCc2nc(C(F)(F)F)ccc2C(=O)Nc2nnnn2CC)n1 : 0
CCn1nnnc1NC(=O)c1ccc(C(F)(F)F)nc1COCc1nc(C(F)(F)F)n(C)n1 : 0
Cn1nnc(CSCc2nc(C(F)(F)F)ccc2C(=O)N(C(=O)c2ccccc2)c2nnnn2C)n1 : 3
Cn1nnc(CSCc2nc(C(F)(F)F)ccc2C(=O)N(c2nnnn2C)S(C)(=O)=O)n1 : 0
Cn1nnnc1NC(=O)c1ccc(C(F)(F)F)nc1COCc1nc(S(C)(=O)=O)n(C)n1 : 2

Next, consider the following molecule.
I am curious: what Foliar treatment phytotoxicity, Wheat value has been reported for COCn1nnc(COCc2nc(C(F)(F)F)ccc2C(=O)Nc2nnnn2C)n1 ?
0

###

Recorded Soil treatment phytotoxicity, Rice for the following compounds
# System: rice
# ASSAY_REMARKS: Phytotoxicity test for field crops (soil treatment test)
# Type: in vivo
# ASSAY_CONDITIONS: 50 g ai/ha; Rice (10 days after treatment)
# Protocol: Experimental Example 4: Phytotoxicity Test for Field Crops (Soil Treatment Test) Soil treatment was performed for sown crops and weeds in a square plastic pot having a surface area of 50 cm^2 filled with sterilized horticultural soil (pH 6.1, organic material 1.0%, clay 21%, silt 17%, sand 52%). As a fertilizer per pot, 0.5 g of horticultural mixed fertilizer (N:P:K=17:21:17) was treated by mixing with soil. Five kinds of crops such as rice, wheat, corn, soybean, and cotton were sown in each pot. […]
Quick one: just the number, no unit, thanks!

Cn1nc(COCc2nc(C(F)(F)F)ccc2C(=O)Nc2nnnn2C)nc1C#N : 1
Cc1nc(COCc2nc(C(F)(F)F)ccc2C(=O)Nc2nnnn2C)nn1C : 0
Cc1nc(COCc2nc(C(F)(F)F)ccc2C(=S)Nc2nnnn2C)nn1C : 0

Need Soil treatment phytotoxicity, Rice of COc1nc(COCc2nc(C(F)(F)F)ccc2C(=O)Nc2nnnn2C)nn1C , thanks.
5

How about this compound: Cn1nnc(COCc2nc(C(F)(F)F)ccc2C(=O)N(C(=O)c2ccccc2)c2nnnn2C)n1
6

###

# Tested on: rice
# ASSAY_REMARKS: Phytotoxicity test for field crops (soil treatment test)
# Type: in vivo
# ASSAY_CONDITIONS: 100 g ai/ha; Rice (20 days after treatment)
READOUT_TYPE: Soil treatment phytotoxicity, Rice

Cn1nc(COCc2nc(C(F)(F)F)ccc2C(=O)Nc2nnnn2C)nc1Br : 7
COc1nc(COCc2nc(C(F)(F)F)ccc2C(=O)Nc2nnnn2C)nn1C : 7

In the following, a different molecule is considered.
For the molecule shown here, Cn1nnc(COCc2nc(C(F)F)ccc2C(=O)Nc2nnnn2C)n1 , give the reported Soil treatment phytotoxicity, Rice.
7
